- system-name: HER2 (Homo sapiens)
- Construct: purchased Promega
- Sequence (P04626 23-1255): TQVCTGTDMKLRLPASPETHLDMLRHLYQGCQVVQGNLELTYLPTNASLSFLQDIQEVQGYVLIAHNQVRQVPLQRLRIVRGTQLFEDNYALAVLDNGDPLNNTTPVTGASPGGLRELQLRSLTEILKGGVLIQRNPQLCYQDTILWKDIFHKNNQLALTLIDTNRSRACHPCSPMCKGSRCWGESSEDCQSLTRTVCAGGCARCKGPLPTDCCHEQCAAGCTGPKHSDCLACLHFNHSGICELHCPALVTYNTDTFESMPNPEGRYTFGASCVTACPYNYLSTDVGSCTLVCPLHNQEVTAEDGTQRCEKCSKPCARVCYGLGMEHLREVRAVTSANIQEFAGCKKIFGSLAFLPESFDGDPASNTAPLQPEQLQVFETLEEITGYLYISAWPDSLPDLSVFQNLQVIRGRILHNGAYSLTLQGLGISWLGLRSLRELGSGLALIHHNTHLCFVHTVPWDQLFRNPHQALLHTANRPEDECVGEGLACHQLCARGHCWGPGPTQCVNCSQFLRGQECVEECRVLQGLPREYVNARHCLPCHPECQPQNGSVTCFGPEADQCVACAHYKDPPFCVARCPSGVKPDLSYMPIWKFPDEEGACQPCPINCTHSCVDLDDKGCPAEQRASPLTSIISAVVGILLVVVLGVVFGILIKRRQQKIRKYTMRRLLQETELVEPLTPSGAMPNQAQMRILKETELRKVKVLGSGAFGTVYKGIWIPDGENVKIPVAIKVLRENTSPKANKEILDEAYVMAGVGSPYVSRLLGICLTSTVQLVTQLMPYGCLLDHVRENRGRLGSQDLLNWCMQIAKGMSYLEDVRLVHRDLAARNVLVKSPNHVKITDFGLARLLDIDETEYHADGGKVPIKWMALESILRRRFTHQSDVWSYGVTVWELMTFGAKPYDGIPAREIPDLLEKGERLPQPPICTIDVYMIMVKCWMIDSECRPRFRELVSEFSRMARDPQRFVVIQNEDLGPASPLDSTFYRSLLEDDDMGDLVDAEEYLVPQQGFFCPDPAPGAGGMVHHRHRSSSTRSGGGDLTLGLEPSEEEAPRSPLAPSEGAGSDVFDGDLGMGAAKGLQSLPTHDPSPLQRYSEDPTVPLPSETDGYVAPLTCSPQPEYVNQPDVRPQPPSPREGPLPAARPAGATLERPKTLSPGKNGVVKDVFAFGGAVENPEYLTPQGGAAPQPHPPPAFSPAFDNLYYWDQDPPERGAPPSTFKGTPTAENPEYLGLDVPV
- method-summary: ADP-Glo kinase assay, HER2
- Type: biochemical
observable: inhibition at 10 µM (%)
Numbers only, in %.

INSERT INTO results (molecule, system_name, endpoint_value) VALUES
  ('CS(=O)(=O)CCNCc1ccc(-c2ccc3ncnc(Nc4ccc(OCc5cccc(F)c5)c(Cl)c4)c3c2)o1 [Lapatinib, reference compound]', 'HER2 (Homo sapiens)', 76);

For each of the molecules below, state inhibition at 10 µM.
1. Cc1cn(-c2cc(NC(=O)c3cccc(C(=O)Nc4cc(-n5cnc(C)c5)cc(C(F)(F)F)c4)c3)cc(C(F)(F)F)c2)cn1 [Compound 10]
2. Cc1cn(-c2cc(NC(=O)c3cccc(C(=O)N4CCN(C(=O)c5ccccc5F)CC4)c3)cc(C(F)(F)F)c2)cn1 [Compound 14]

19
14

====

- Tested on: K562 cells
- method-summary: Cell cycle analysis (propidium iodide, flow cytometry)
- Type: cell-based
- settings: K562, 5 µM, 48 h
observable: G1, % (%)
Numbers only, in %.

Some solved cases for reference:
INSERT INTO measurements (compound, system_name, observable, endpoint_value) VALUES
  ('Cc1cn(-c2cc(NC(=O)c3cccc(C(=O)Nc4cccc(C(F)(F)F)c4)c3)cc(C(F)(F)F)c2)cn1', 'K562 cells', 'G1, %', 31.77),
  ('Cc1cn(-c2cc(NC(=O)c3cccc(C(=O)N4CCN(C(=O)c5ccccc5F)CC4)c3)cc(C(F)(F)F)c2)cn1', 'K562 cells', 'G1, %', 27.58),
  ('CNC(=O)c1cc(Oc2ccc(NC(=O)Nc3ccc(Cl)c(C(F)(F)F)c3)cc2)ccn1 [Sorafenib, reference compound]', 'K562 cells', 'G1, %', 33.87);

For each of the compounds below, state G1, %.
1. CS(=O)(=O)CCNCc1ccc(-c2ccc3ncnc(Nc4ccc(OCc5cccc(F)c5)c(Cl)c4)c3c2)o1 [Lapatinib, reference compound]
2. Cc1cn(-c2cc(NC(=O)c3cccc(C(=O)N4CCN(C(=O)c5cccc(F)c5)CC4)c3)cc(C(F)(F)F)c2)cn1

31.31
34.76

====

- System: K562 cells
- method-summary: Cell cycle analysis (propidium iodide, flow cytometry)
- Assay type: cell-based
- settings: K562, 1 µM, 48 h
observable: G1, % (%)
Numbers only, in %.

INSERT INTO measurements (compound, observable, endpoint_value) VALUES
  ('CNC(=O)c1cc(Oc2ccc(NC(=O)Nc3ccc(Cl)c(C(F)(F)F)c3)cc2)ccn1 [Sorafenib, reference compound]', 'G1, %', 36.50),
  ('Cc1cn(-c2cc(NC(=O)c3cccc(C(=O)Nc4cccc(C(F)(F)F)c4)c3)cc(C(F)(F)F)c2)cn1', 'G1, %', 37.92),
  ('Cc1cn(-c2cc(NC(=O)c3cccc(C(=O)N4CCN(C(=O)c5ccccc5F)CC4)c3)cc(C(F)(F)F)c2)cn1', 'G1, %', 32.65),
  ('CS(=O)(=O)CCNCc1ccc(-c2ccc3ncnc(Nc4ccc(OCc5cccc(F)c5)c(Cl)c4)c3c2)o1 [Lapatinib, reference compound]', 'G1, %', 34.47);

Let us examine a further case.
What reported G1, % corresponds to `Cc1cn(-c2cc(NC(=O)c3cccc(C(=O)N4CCN(C(=O)c5cccc(F)c5)CC4)c3)cc(C(F)(F)F)c2)cn1` on K562 cells?
30.15

====

- system-name: Aurora A (Homo sapiens)
- Construct: purchased Promega
- Sequence (O14965 1-403): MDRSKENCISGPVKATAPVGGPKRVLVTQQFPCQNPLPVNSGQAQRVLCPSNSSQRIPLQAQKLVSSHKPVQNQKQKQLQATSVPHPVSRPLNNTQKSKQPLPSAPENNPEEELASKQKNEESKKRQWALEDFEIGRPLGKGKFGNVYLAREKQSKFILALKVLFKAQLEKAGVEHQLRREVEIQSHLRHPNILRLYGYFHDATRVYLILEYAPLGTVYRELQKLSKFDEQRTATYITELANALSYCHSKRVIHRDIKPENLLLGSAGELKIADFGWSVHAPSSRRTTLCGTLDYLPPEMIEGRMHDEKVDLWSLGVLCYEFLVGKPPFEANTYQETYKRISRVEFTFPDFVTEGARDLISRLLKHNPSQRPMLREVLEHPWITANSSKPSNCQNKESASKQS
- method-summary: ADP-Glo kinase assay, Aurora A
- Format: biochemical
For each entry below, report its inhibition at 10 µM value.
One number for each entry, in %.

Some solved cases for reference:
INSERT INTO assay_data (compound, endpoint_value) VALUES
  ('Cc1cn(-c2cc(NC(=O)c3ccc(C(=O)Nc4cccc(C(F)(F)F)c4)cc3)cc(C(F)(F)F)c2)cn1', 0),
  ('Cc1cn(-c2cc(NC(=O)c3ccc(C(=O)Nc4cc([N+](=O)[O-])ccc4C)cc3)cc(C(F)(F)F)c2)cn1', 0),
  ('Cc1cn(-c2cc(NC(=O)c3cccc(C(=O)N4CCN(C(=O)c5ccccc5F)CC4)c3)cc(C(F)(F)F)c2)cn1', 0);

Let us examine a further case.
Field request: inhibition at 10 µM | item: CCN(CC)CCNC(=O)c1c(C)[nH]c(/C=C2\C(=O)Nc3ccc(F)cc32)c1C [Sunit., sunitinib, reference compound]
68

====

- Tested on: K562 cell line
- method-summary: ROS determination (DCFH-DA, flow cytometry)
- Assay type: cell-based
- settings: K562, 10 µM, 48 h
observable: ROS Level, % of Control

Some solved cases for reference:
INSERT INTO measurements (molecule, endpoint_value) VALUES
  ('Cc1cn(-c2cc(NC(=O)c3cccc(C(=O)N4CCN(C(=O)c5ccccc5F)CC4)c3)cc(C(F)(F)F)c2)cn1', '76.96 % of Control'),
  ('Cc1cn(-c2cc(NC(=O)c3cccc(C(=O)Nc4cccc(C(F)(F)F)c4)c3)cc(C(F)(F)F)c2)cn1', '64.66 % of Control'),
  ('Cc1cn(-c2cc(NC(=O)c3cccc(C(=O)N4CCN(C(=O)c5cccc(F)c5)CC4)c3)cc(C(F)(F)F)c2)cn1', '87.87 % of Control'),
  ('CNC(=O)c1cc(Oc2ccc(NC(=O)Nc3ccc(Cl)c(C(F)(F)F)c3)cc2)ccn1 [Sorafenib, reference compound]', '79.03 % of Control');

Let us examine a further case.
What reported ROS Level, % of Control corresponds to CS(=O)(=O)CCNCc1ccc(-c2ccc3ncnc(Nc4ccc(OCc5cccc(F)c5)c(Cl)c4)c3c2)o1 [Lapatinib, reference compound] on K562 cell line?
72.23 % of Control

====

- system-name: Aurora B (Homo sapiens, UniProt Q96GD4)
- Construct: purchased Promega
- Sequence (Q96GD4 whole entry): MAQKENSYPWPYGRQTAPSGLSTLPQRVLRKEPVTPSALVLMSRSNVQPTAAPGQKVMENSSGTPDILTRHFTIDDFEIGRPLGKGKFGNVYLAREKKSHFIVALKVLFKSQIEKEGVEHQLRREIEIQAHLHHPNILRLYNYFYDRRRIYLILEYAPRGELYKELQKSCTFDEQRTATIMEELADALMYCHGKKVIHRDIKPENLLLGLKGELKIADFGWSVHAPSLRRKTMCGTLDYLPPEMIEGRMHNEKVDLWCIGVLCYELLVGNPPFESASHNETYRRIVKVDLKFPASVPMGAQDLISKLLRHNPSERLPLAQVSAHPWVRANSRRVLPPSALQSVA
- method-summary: ADP-Glo kinase assay, Aurora B
- Type: biochemical
observable: inhibition at 10 µM (%)
One number for each entry, in %.

Some solved cases for reference:
INSERT INTO results (molecule, observable, endpoint_value) VALUES
  ('Cc1cn(-c2cc(NC(=O)c3ccc(C(=O)Nc4cccc(C(F)(F)F)c4)cc3)cc(C(F)(F)F)c2)cn1 [Compound 17]', 'inhibition at 10 µM', 0),
  ('Cc1cn(-c2cc(NC(=O)c3cccc(C(=O)Nc4cccc(C(F)(F)F)c4)c3)cc(C(F)(F)F)c2)cn1 [Compound 5]', 'inhibition at 10 µM', 0),
  ('Cc1cn(-c2cc(NC(=O)c3ccc(C(=O)Nc4cc([N+](=O)[O-])ccc4C)cc3)cc(C(F)(F)F)c2)cn1 [Compound 24]', 'inhibition at 10 µM', 3);

Let us examine a further case.
Field request: inhibition at 10 µM | item: Cc1cn(-c2cc(NC(=O)c3cccc(C(=O)Nc4cc(-n5cnc(C)c5)cc(C(F)(F)F)c4)c3)cc(C(F)(F)F)c2)cn1 [Compound 10]
0

====

- system-name: HER2 (Homo sapiens)
- Construct: purchased Promega
- method-summary: ADP-Glo kinase assay, HER2
- Type: biochemical
For each entry below, report its inhibition at 10 µM value.
One number for each entry, in %.

Some solved cases for reference:
INSERT INTO results (molecule, unit_spec, endpoint_value) VALUES
  ('Cc1cn(-c2cc(NC(=O)c3cccc(C(=O)Nc4cccc(C(F)(F)F)c4)c3)cc(C(F)(F)F)c2)cn1 [Compound 5]', '%', 33),
  ('O=C(Nc1cccc(C(F)(F)F)c1)c1cccc(C(=O)N2CCN(C(=O)c3cccc(F)c3)CC2)c1 [Compound 9]', '%', 64),
  ('Cc1cn(-c2cc(NC(=O)c3ccc(C(=O)Nc4cccc(C(F)(F)F)c4)cc3)cc(C(F)(F)F)c2)cn1 [Compound 17]', '%', 13);

For each of the molecules below, state inhibition at 10 µM.
1. COc1ccc(C(=O)N2CCN(C(=O)c3ccc(C(=O)Nc4cccc(C(F)(F)F)c4)cc3)CC2)cc1 [Compound 19]
2. Cc1cn(-c2cc(NC(=O)c3ccc(C(=O)Nc4cc([N+](=O)[O-])ccc4C)cc3)cc(C(F)(F)F)c2)cn1 [Compound 24]
3. O=C(Nc1cccc(C(F)(F)F)c1)c1cccc(C(=O)N2CCN(C(=O)c3ccccc3F)CC2)c1 [Compound 8]

39
49
0

Source of measurements: paper PMC10046946
